meta.source: a melting point compilation (Tetko et al.; mined from patent text by program, amines drawn as free bases though some values may be those of a salt)

assay metric: melting point

Quick one: melting point of `C=Cc1ccc(COc2ccc(CSCCC(=O)O)cc2)cc1` ?
135 to 136 °C

I am curious: what melting point value has been reported for `Cc1ccccc1-n1c(CSc2ncnc3[nH]cnc23)nc2cccc(Cl)c2c1=O` ?
214 °C

Name the reported melting point value associated with the compound `Cc1nc2cc3c(cc2[nH]1)C(C)(C)CC(=O)N3`
290 to 294 °C

// returns reported melting point for input CC1(N2C(=O)c3cccc(NCc4cccc(Cl)c4)c3C2=O)CCC(=O)NC1=O (stereo not given)
199 to 201 °C

What value of measured melting point is listed for `CCN(CC)c1cc(=O)c2c(o1)c(OC)cc1ccccc12` ?
150 to 151 °C

Need melting point, item `COc1ccc2[nH]cc(CCCCN3CCN(c4ccc5oc(CO)cc5c4)CC3)c2c1`
159 °C

Would you kindly share the measured melting point for Cc1c(N2CCC(C(N)c3cccnc3)C2)c(F)c(N)c2c(=O)c(C(=O)O)cn(C3CC3F)c12 (stereo not given) ?
213 to 215 °C

For `COC(=S)c1ccc2ccc(C(=O)N(C)C)cc2c1` , what is its reported melting point?
123 to 124 °C

Given `CN1CCC(CNc2ncc3cc(-c4ccccc4Cl)c(=O)[nH]c3n2)CC1` , state its recorded melting point.
213 to 220 °C

May I ask what melting point has been recorded for CC(C)(C)NC(=O)c1ccccc1C(C(=O)C(C)(C)C)c1ccccc1 (stereo not given) ?
157 to 161 °C

----------
assay metric: melting point

Fill in: melting point of `CC(C)c1cc(Br)cc(C(C)C)c1N=C(c1ccccc1)c1ccccc1` is ___
114 °C

Recorded melting point of `CCCCCCCCCCCCCCCCCCOc1ccc(OCCCOc2ccc(OCc3ccccc3)cc2)c(C(=O)O)c1` , please.
92 to 95 °C

May I ask what melting point has been recorded for `CC(C)c1cc(O)cc2cc(-c3ccc(O)cc3)oc12` ?
192 to 194 °C

I am curious: what melting point value has been reported for `N#CCC(=O)N1CC=CCC1` ?
58 to 59 °C

If you can, please state the reported melting point value of `COc1ccc(-n2cc(/C=C(\C#N)C(=O)NS(C)(=O)=O)c(-c3ccc(Cl)c(F)c3)n2)cc1Cl` .
280 to 282 °C

Which melting point reading was recorded for the compound CC1C(=O)N(c2ccc(S(N)(=O)=O)cc2Cl)CN1c1ccccc1 (stereo not given) ?
202 °C

Dear colleague, I am looking for the recorded melting point of the following compound: CC(NC(=O)C1(C(F)(F)F)CC(C)(Cl)C1)c1ccc(Cl)cc1 (stereo not given)
129 to 130 °C

Endpoint output: melting point of COCCCn1ccc2c1CC(c1ccccc1Cl)C1C(=O)NC(=O)C21 (stereo not given) . Value?
75 to 90 °C

Returns the measured melting point for the input compound. Input: `COc1cc2nc(N3CCN(C(=O)C=Cc4ccc(OC)c(OC)c4OC)CC3)nc(N)c2cc1OC`
263 to 264 °C

Given the compound `CCCCC/C=C\C/C=C\C/C=C\C/C=C\CCCC(=O)N[C@@H](C)C(=O)N[C@H](CCC(=O)O)C(=O)O` , what is its reported melting point?
90 °C

// melting point lookup, key: `CC(C)C(=O)CCC(=O)c1ccc(F)cc1`
47 to 49 °C

For the compound `OCCNc1c(Br)cnc2cc(Cl)ccc12` , what melting point is on record?
169 to 170 °C

melting point lookup needed for `Nc1nc2c(ncn2OCC/C=C\P(=O)(O)O)c(=O)[nH]1` , thanks.
240 to 242 °C

What does the record list as melting point for `O=c1[nH]c(=O)n2c(c1-c1ccccc1)SCCC2` ?
> 300 °C

Request the reported melting point associated with CNCC(O)c1cc(C(F)(F)F)nc2c(C(F)(F)F)cccc12 (stereo not given)
158 °C

Sample C=C1c2cc(C(=O)O)ccc2CCC1n1ccnc1 (stereo not given) — what was its melting point?
227 to 229 °C

Item `CN(C)C1CCN(c2nc(NCc3ccccc3)c3ncnc(NCc4ccccc4)c3n2)CC1` has what recorded melting point?
143 to 145 °C

If you can, please state the reported melting point value of `COC(=O)c1cc(-c2nc(COc3ccc(COc4nn(-c5ccccc5)cc4C=O)cc3OC)c(C)o2)ccc1OC` .
165 to 166 °C

Would you kindly share the measured melting point for `O=C(O)Cc1ccc(Sc2ccc(O)cc2)cc1` ?
163 to 165 °C

Given the entry `Clc1ccccc1N1CCN(Cc2nc3ccccc3[nH]2)CC1` , report its measured melting point.
245 to 246 °C
